Reported IC50 is given for each of the following compounds.
- Tested target: system xc- (IMR90) (Homo sapiens, UniProt Q9UPY5)
- Construct: gene SLC7A11; native endogenous transporter in intact IMR-90 fibroblasts
- Assay method text: cell-based
- Parameters: species or system IMR-90; cystine-induced glutamate release inhibition, 30 min, PBS with Na+
- Test context: PBS (+Na+), 30 min; read-out: Glutamate Release IMR90
Answer in µM, number only, no unit symbol.

O=C(O)c1cc(/N=N/c2ccc(S(=O)(=O)Nc3ccccn3)cc2)ccc1O    3

Now, please, on to the next compound.
Look up IC50 with system xc- (IMR90) (Homo sapiens, UniProt Q9UPY5) for this compound: N[C@H](C(=O)O)c1ccc(C(=O)O)cc1 [(S)-4CPG]
2

---

- Tested target: system xc- (H4) (Homo sapiens)
- Construct: gene SLC7A11; native endogenous transporter in intact H4 neuroglioma cells
- Sequence (Q9UPY5 1-501): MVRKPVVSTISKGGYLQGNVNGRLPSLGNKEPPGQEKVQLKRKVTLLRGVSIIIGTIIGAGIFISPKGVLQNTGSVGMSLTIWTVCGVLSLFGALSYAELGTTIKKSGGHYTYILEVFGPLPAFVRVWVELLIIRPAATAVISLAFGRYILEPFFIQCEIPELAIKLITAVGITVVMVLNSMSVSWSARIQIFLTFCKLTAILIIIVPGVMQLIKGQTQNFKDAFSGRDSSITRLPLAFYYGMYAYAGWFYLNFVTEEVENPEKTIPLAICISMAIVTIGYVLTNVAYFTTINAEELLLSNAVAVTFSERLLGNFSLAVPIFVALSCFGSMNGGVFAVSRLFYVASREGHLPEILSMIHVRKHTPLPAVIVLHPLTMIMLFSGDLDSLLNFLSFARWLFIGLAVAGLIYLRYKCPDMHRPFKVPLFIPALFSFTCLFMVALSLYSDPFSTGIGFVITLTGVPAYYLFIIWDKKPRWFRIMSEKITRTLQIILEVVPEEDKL
- Sequence (P08195 1-529 partner): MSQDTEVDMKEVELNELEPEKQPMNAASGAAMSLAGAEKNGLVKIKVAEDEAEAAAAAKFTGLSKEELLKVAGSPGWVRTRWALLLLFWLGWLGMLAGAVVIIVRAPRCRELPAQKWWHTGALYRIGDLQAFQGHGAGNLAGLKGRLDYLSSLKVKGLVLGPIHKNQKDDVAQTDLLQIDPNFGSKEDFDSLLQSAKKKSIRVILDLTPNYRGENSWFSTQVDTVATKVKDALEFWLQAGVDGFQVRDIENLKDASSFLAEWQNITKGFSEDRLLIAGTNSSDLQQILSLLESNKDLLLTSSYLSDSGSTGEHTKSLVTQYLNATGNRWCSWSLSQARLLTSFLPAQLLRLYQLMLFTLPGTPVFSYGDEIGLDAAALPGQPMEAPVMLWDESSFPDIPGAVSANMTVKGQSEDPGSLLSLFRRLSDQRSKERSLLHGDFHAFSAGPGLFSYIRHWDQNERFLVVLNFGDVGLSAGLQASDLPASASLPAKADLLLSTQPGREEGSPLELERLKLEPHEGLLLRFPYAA
- Assay method text: cell-based
- Set-up: cystine-induced glutamate release inhibition, 30 min, PBS with Na+
- Test context: PBS (+Na+), 30 min; read-out: Glutamate Release H4
Measured property: IC50

Consider the compound shown here: N[C@@H](C(=O)O)c1ccc(C(=O)O)cc1 [(R)-4CPG] What is its recorded IC50?
> 100 µM
